Molecular target: PAR2 (HT-29 cells) (Homo sapiens)
Construct: host or cells: HT-29
Sequence (P55085 26-397): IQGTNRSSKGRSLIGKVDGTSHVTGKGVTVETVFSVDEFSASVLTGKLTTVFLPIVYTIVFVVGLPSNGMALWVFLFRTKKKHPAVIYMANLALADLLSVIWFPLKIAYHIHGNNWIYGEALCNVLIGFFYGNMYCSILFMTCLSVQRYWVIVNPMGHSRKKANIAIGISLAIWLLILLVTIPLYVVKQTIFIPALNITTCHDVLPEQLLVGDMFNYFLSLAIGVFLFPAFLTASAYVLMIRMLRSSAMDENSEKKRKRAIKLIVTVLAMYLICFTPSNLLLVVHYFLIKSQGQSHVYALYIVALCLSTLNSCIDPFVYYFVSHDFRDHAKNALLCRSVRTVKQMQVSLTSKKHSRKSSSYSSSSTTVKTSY
Assay: Ca FLIPR TETRA assay, ANTAGONIST mode, activator 8 μM SLIGKV
Format: cell-based
Conditions: HT-29 cells; activator 8 μM SLIGKV; Method A: maximal concentration of antagonist 0.1, 1 or 2 μM
measurement.type: IC50 (nM)

[[record]]
compound = "CC(CC(=O)N1CCN(C(=O)c2cc3nc(-c4ccc(Cl)c(F)c4)cc(C(C)(C)C)c3o2)C(C)(C)C1)C(=O)O (single isomer, unassigned) [Example I-514]"
rel = "="
number = 1.3

[[record]]
compound = "CC(C)[C@@H](CC(=O)N1CCN(C(=O)c2cc3nc(-c4ccc(Cl)cc4)cc(C(C)(C)C)c3o2)C(C)(C)C1)C(=O)O"
rel = "="
number = 0.1

[[record]]
compound = "CC(C)(C)c1cc(-c2ccc(F)cc2)nc2cc(C(=O)N3CCN(N4CCC(=O)NCC4(C)C)CC3(C)C)oc12"
rel = "="
number = 450

[[record]]
compound = "CC(C)(C)c1cc(N2CCC(C#N)CC2)nc2cc(C(=O)N3CCN(C(=O)[C@H]4C[C@](C)(O)C4)CC3(C)C)oc12"
rel = "="
number = 320

[[record]]
compound = "CC1(C)CCC(c2cc(C(C)(C)C)c3oc(C(=O)N4CCN(c5nccc(C(=O)O)n5)CC4(C)C)cc3n2)CC1"
rel = "="
number = 1.2

[[record]]
compound = "Cc1cc(N2CCN(C(=O)c3cc4nc(C5CCC(C)(C)CC5)cc(C(C)(C)C)c4o3)C(C)(C)C2=O)n[nH]1"
rel = "="
number = 32

[[record]]
compound = "CC(C)(C)c1cc(-c2ccc(Cl)cc2)nc2cc(C(=O)N3CCN(c4cccnc4)C(=O)C3(C)C)oc12"
rel = "="
number = 23

[[record]]
compound = "CC(C)(C)c1cc(C2CC3(CCC3)C2)nc2cc(C(=O)N3CCN(C(=O)[C@H]4CNCCO4)CC3(C)C)oc12"
rel = "="
number = 260

[[record]]
compound = "Cc1cc(C(=O)N2CCN(C(=O)c3cc4nc(-c5ccc(Cl)c(F)c5)cc(C(C)(C)C)c4o3)C(C)(C)C2)[nH]n1"
rel = "="
number = 1.2

[[record]]
compound = "CC1(C)CCC(c2cc(C(C)(C)C)c3oc(C(=O)N4CCN(c5cccc(C(=O)O)n5)C(=O)C4(C)C)cc3n2)CC1"
rel = "="
number = 8.7

[[record]]
compound = "CC(C)(C)c1cc(-c2ccc(Cl)c(F)c2)nc2cc(C(=O)N3CCC(NC(=O)NS(C)(=O)=O)CC3(C)C)oc12 (centres unmarked)"
rel = "="
number = 1.5

[[record]]
compound = "CC(C)(C)c1cc(-c2ccc(Cl)c(F)c2)nc2cc(C(=O)N3CCN(C(=O)CCP(C)(=O)O)CC3(C)C)oc12"
rel = "="
number = 280

[[record]]
compound = "CC(C)(C)c1cc(-c2ccc(Cl)c(F)c2)nc2cc(C(=O)N3CCN(C(=O)NS(=O)(=O)c4ccccc4)CC3(C)C)oc12"
rel = "="
number = 0.6

[[record]]
compound = "Cc1cc(C(=O)O)nc(N2CCN(C(=O)c3cc4nc(-c5ccc(Cl)c(F)c5)cc(C(C)(C)C)c4o3)C(C)(C)C2)c1"
rel = ">"
number = 2000

[[record]]
compound = "CN1CCN(C(=O)c2cc3nc(C4CCC(C)(C)CC4)cc(C(C)(C)C)c3o2)C(C)(C)C1=O"
rel = "="
number = 8.2

[[record]]
compound = "CC1(C)CCC(c2cc(C(C)(C)C)c3oc(C(=O)N4CCN(C(=O)[C@H]5CC[C@@](C)(C(=O)OCOP(=O)(O)O)CC5)CC4(C)C)cc3n2)CC1"
rel = "="
number = 0.2

[[record]]
compound = "CC(C)(C)c1cc(-c2ccc(Cl)c(F)c2)nc2cc(C(=O)N3CCN(c4ccc(F)c(C(=O)O)n4)CC3(C)C)oc12"
rel = "="
number = 0.9

[[record]]
compound = "Cc1nc(C)c(N2CCN(C(=O)c3cc4nc(-c5ccc(Cl)cc5)cc(C(C)(C)C)c4o3)C(C)(C)C2=O)o1"
rel = "="
number = 50

[[record]]
compound = "CC1(O)CC(C(=O)N2CCN(C(=O)c3cc4nc(N5CCC(F)(F)C5)cc(C(C)(C)C)c4o3)C(C)(C)C2)C1 (centres unmarked)"
rel = "="
number = 78

[[record]]
compound = "CC(C)[C@@H](CC(=O)N1CCN(C(=O)c2cc3nc(-c4ccc(Cl)c(F)c4)cc(C(C)(C)C)c3o2)C(C)(C)C1)C(=O)O"
rel = "="
number = 0.1

[[record]]
compound = "CC(C)(C)c1cc(-c2ccc(Cl)cc2)nc2cc(C(=O)N3CCC(c4nc(C(=O)O)cs4)CC3(C)C)oc12 (centres unmarked)"
rel = "="
number = 0.1

[[record]]
compound = "CC1(C)CCC(c2cc(C(C)(C)C)c3oc(C(=O)N4CCC(=O)NCC4(C)C)cc3n2)CC1"
rel = "="
number = 115

[[record]]
compound = "CC(C)(C)c1cc(-c2ccc(Cl)c(F)c2)nc2cc(C(=O)N3CCC(N)CC3(C)C)oc12 (centres unmarked)"
rel = "="
number = 690

[[record]]
compound = "Cc1cncc(N2CCN(C(=O)c3cc4nc(-c5ccc(Cl)cc5)cc(C(C)(C)C)c4o3)C(C)(C)C2)n1"
rel = "="
number = 12

[[record]]
compound = "CC(C)(C)c1cc(-c2ccc(Cl)cc2)nc2cc(C(=O)N3CCNC(=O)CC3(C)C)oc12"
rel = "="
number = 12

[[record]]
compound = "CC(C)(C)c1cc(-c2ccc(Cl)c(F)c2)nc2cc(C(=O)N3CCN(C(=O)CCC(=O)O)CC3(C)C)oc12"
rel = "="
number = 1.1

